- TARGET_OF_ASSAY: T1, Human DLL3 expressed on cells (HEK293T-hDLL3, NCI-H82, SHP-77, MC38-hDLL3) (human, UniProt Q9NYJ7 27-618)
- T1 construct: also called DLL3 endogenously expressed on human cells
- T1 sequence: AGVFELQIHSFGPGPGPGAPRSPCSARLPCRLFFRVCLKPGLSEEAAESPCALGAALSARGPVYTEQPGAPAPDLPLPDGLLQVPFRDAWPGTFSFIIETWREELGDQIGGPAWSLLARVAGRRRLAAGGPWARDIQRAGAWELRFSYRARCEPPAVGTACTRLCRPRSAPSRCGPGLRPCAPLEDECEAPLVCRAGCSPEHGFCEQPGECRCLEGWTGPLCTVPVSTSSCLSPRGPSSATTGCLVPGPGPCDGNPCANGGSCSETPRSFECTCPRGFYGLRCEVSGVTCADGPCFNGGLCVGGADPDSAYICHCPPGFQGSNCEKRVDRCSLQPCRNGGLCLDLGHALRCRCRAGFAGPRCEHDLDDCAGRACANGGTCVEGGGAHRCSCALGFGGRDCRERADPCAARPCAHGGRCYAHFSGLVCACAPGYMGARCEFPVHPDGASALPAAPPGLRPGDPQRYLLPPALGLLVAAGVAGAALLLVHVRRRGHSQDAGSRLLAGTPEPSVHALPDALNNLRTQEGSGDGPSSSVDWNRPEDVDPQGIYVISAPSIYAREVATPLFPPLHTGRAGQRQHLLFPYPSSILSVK
- TEST_METHOD_NOTES: flow cytometry titration on HEK293T-hDLL3 cells, without HSA

{"BINDER": "MAM160 (two domain ankyrin repeat protein, N-terminal His6-TEV tag) (designed binder, also called 2D DARPin) MRGSHHHHHHENLYFQDLGKKLLEAARAGQDDEVRELLKAGADVNAKDYFSHTPLHLAARNGHLKIVEVLLKAGADVNAKDFAGKTPLHLAADAGHLEIVEVLLKAGADVNAQDIFGKTPADIAADAGHEDIAEVLQKAAGSPTPTPTTPTPTPTTPTPTPTGSDLGTKLLSAAADGQDDEVRELLQAGADVNAKDLFGYTPLHLAAWRGHLEIVEVLLEAGADVNAKDAAGLTPLHLAAWFGHLEIVEVLLEAGADVNAQDVQGVTPADLAAKEGHEDIAEVLQQAA", "U": "nM", "EC50": 18.9}
{"BINDER": "MAM088 (single domain ankyrin repeat protein, His-tagged) (designed binder, also called 1D DARPin; not shown: His-tag) DLGKKLLAAAREGQDDEVRELLKAGADVNAKDIWGQTPLHIAAWFGHLEIVEVLLKAGADVNAKDQTGHTPLHLAAKFGHLEIVEVLLKAGADVNAQDLLGRTPADLAAEEGHEDIAEVLQKAA", "U": "nM", "EC50": 5}
{"BINDER": "MAM282 (two domain ankyrin repeat protein, N-terminal His6-TEV tag) (designed binder, also called 2D DARPin) MRGSHHHHHHENLYFQDLGKKLLEAARAGQDDEVRELLKAGADVNAKDYFSHTPLHLAARNGHLKIVEVLLKAGADVNAKDFAGKTPLHLAADAGHLEIVEVLLKAGADVNAQDIFGKTPADIAADAGHEDIAEVLQKAAGSPTPTPTTPTPTPTTPTPTPTGSDLGKKLLAAAREGQDDEVRELLKAGADVNAKDIWGQTPLHIAAWFGHLEIVEVLLKAGADVNAKDQTGHTPLHLAAKFGHLEIVEVLLKAGADVNAQDLLGRTPADLAAEEGHEDIAEVLQKAA", "U": "nM", "EC50": 21.2}
{"BINDER": "MAM093 (single domain ankyrin repeat protein, His-tagged) (designed binder, also called 1D DARPin; not shown: His-tag) DLGKKLLAAAAQGQDDEVRELLKAGANVNAKDLFGYTPLHLAAWRGHLEIVEVLLKAGADVNAKDAAGETPLHLAAWFGHLEIVEVLLKAGADVNAQDLQGKTPADLAAKEGHEDIAEVLQKAA", "U": "nM", "EC50": 4.9}
{"BINDER": "MAM279 (two domain ankyrin repeat protein, N-terminal His6-TEV tag) (designed binder, Cleavage of the tag is not reported; also called 2D DARPin) MRGSHHHHHHENLYFQDLGKKLLEAARAGQDDEVRELLKAGADVNAKDYFSHTPLHLAARNGHLKIVEVLLKAGADVNAKDFAGKTPLHLAADAGHLEIVEVLLKAGADVNAQDIFGKTPADIAADAGHEDIAEVLQKAAGSPTPTPTTPTPTPTTPTPTPTGSDLGKKLLAAAAQGQDDEVRELLKAGANVNAKDLFGYTPLHLAAWRGHLEIVEVLLKAGADVNAKDAAGETPLHLAAWFGHLEIVEVLLKAGADVNAQDLQGKTPADLAAKEGHEDIAEVLQKAA", "U": "nM", "EC50": 14.9}
